# measured on: T1, recombinant human NKp30 extracellular domain, his-tagged (human, UniProt O14931 19-135)
# T1 construct: BLI used human NKp30 bought from Abcam (his-tagged ECD); also called rh NKp30 ECD; human NKp30 (Abcam); not shown: his tag
# T1 sequence: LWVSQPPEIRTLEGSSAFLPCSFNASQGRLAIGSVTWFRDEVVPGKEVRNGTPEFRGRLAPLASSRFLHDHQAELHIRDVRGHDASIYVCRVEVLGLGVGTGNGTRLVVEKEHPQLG
# measurement notes: BLI as in Example 1
pKd: −log10 of the molar value.
This section presents binders with their documented pKd values.
observation type: pKd

[[record]]
binder = "VHH2.16 (humanized) (VHH, expressed and measured by BLI 'as described in Experiment 1' (there: bispecific SEEDbody on anti-human Fc sensors)) VHH: EVQLVESGGGVVQPGGSLRLSCAASGQTWTNYHIGWFRQAPGKGLEWVASIEWGGRGTYATDSVKGRFTISRDNAKNTLYLQMNSLRAEDTAVYYCAAQSSSRSPLESNYDYWGQGTLVTVSS"
reported_result = 8.33

[[record]]
binder = "VHH2.8 (humanized) (VHH, expressed and measured by BLI 'as described in Experiment 1' (there: bispecific SEEDbody on anti-human Fc sensors)) VHH: EVQLVESGGGVVQPGGSLRLSCAVSGQTWTNYHIGWFRQAPGKGLEWVASIEWGGRGTYATDSVKGRFTISRDNAKNTLYLQMNSLRAEDTAVYYCAAQSSSRSPLESNYDYWGQGTLVTVSS"
reported_result = 8.18

[[record]]
binder = "VHH2 (parental, as tested in Example 9) (VHH, expressed and measured by BLI 'as described in Experiment 1' (there: bispecific SEEDbody on anti-human Fc sensors)) VHH: DVQLQESGGGLVQAGGSLRLSCAVSGQTWTNYHIGWFRQAPGKARESVASIEWGGRGTYATDSVKGRFTISRDNAKNTVYLQMNSLKPEDTAVYYCAAQSSSRSPLESNYDYWGQGTQVTVSS"
reported_result = 8.54

[[record]]
binder = "VHH2.12 (humanized) (VHH, expressed and measured by BLI 'as described in Experiment 1' (there: bispecific SEEDbody on anti-human Fc sensors)) VHH: EVQLVESGGGVVQPGGSLRLSCAASGQTWTNYHIGWFRQAPGKGLEWVASIEWGGRGTYATDSVKGRFTISRDNAKNTVYLQMNSLRAEDTAVYYCAAQSSSRSPLESNYDYWGQGTLVTVSS"
reported_result = 8.37

